Entries annotated with measured inhibition at 30 µM
- TARGET_ENTITY: UniProtKB P04585
- ASSAY: biochemical
- ASSAY_CONTEXT: read-out: HIV-1 Protease % Inhib, dose 30.000 uM
ATTRIBUTE_MEASURED: inhibition at 30 µM (%)

* O=c1oc2c(c(O)c1C(c1ccc(CO)s1)C1CC1)CCCCCC2 (stereo not shown) [Example 384] | 102
* O=C(O)c1ccc(S(=O)(=O)Nc2cccc(C(c3c(O)c4c(oc3=O)CCCCCC4)C3CC3)c2)cc1 (stereo not shown) [Example 276] | 124
* O=C(CCn1ccc2ccccc21)Nc1cccc(C(c2c(O)c3ccccc3oc2=O)C2CC2)c1 (stereo not shown) [Example 168] | 107
* O=c1oc2c(c(O)c1C(c1cccc(NS(=O)(=O)c3cccc4ccccc34)c1)C1CC1)CCCCCC2 (stereo not shown) [Example 270] | 115
* O=c1oc2c(c(O)c1C(c1cccc(NS(=O)(=O)c3ccc([N+](=O)[O-])cc3)c1)C1CC1)CCCCCC2 (stereo not shown) [Example 273] | 108
* O=c1oc2c(c(O)c1C(c1cccc(NS(=O)(=O)c3ccc(Cl)cc3Cl)c1)C1CC1)CCCCCC2 (stereo not shown) [Example 305] | 107
* O=C(NCc1ccc(C(c2c(O)c3c(oc2=O)CCCCCC3)C2CC2)o1)OCc1ccccc1 (stereo not shown) [Example 388] | 93.7

----------
- TARGET_ENTITY: HIV-1 protease (Human immunodeficiency virus type 1 group M subtype B)
- ASSAY: biochemical
- ASSAY_CONTEXT: read-out: HIV-1 Protease % Inhib, dose 100.000 uM
The following compounds are shown together with reported inhibition at 100 µM values.
ATTRIBUTE_MEASURED: inhibition at 100 µM (%)

- C=CCOc1cccc(C(CC)c2c(O)c3ccccc3oc2=O)c1 (stereo not shown) [Example 67]: 60.9
- CCCCNC(=O)c1cccc(C(C)c2c(O)c3ccccc3oc2=O)c1 (stereo not shown) [Example 31]: 53.7
- CCCCC(c1ccccc1)c1c(O)c2ccccc2oc1=O (stereo not shown) [Example 11, 4-Hydroxy-3-(1-phenylpentyl)-coumarin]: 105
- CC(C)N=C(Nc1cccc(C(c2c(O)c3c(oc2=O)CCCCCC3)C2CC2)c1)NC(C)C (stereo not shown) [Example 120]: 106

----------
Here, each record is paired with measured inhibition at 0.37 µM data.
- TARGET_ENTITY: HIV-1 protease (Human immunodeficiency virus type 1 group M subtype B, UniProt P04585)
- ASSAY: biochemical
- ASSAY_CONTEXT: read-out: HIV-1 Protease % Inhib, dose 0.370 uM
ATTRIBUTE_MEASURED: inhibition at 0.37 µM

- O=c1oc2c(c(O)c1C(c1cccc(NS(=O)(=O)c3cccc(O)c3)c1)C1CC1)CCCCCC2 (stereo not drawn): 88.6%
- O=c1oc2c(c(O)c1C(c1cccc(NS(=O)(=O)c3ccc(I)cc3)c1)C1CC1)CCCCCC2 (stereo not drawn): 92.2%
- O=c1oc2c(c(O)c1C(c1cccc(NS(=O)(=O)c3cccc(NCCO)c3)c1)C1CC1)CCCCCC2 (stereo not drawn): 117%
- CCCC(c1cccc(NS(=O)(=O)c2ccc(C#N)cc2)c1)c1c(O)c2c(oc1=O)CCCCCC2 (stereo not drawn) [Example 378]: 111%
- C=CS(=O)(=O)Nc1cccc(C(c2c(O)c3c(oc2=O)CCCCCC3)C2CC2)c1 (stereo not drawn): 31.2%
- O=c1oc2c(c(O)c1C(c1cccc(NS(=O)(=O)c3cc(S(=O)(=O)c4ccccc4)cs3)c1)C1CC1)CCCCCC2 (stereo not drawn): 84.6%
- O=c1oc2c(c(O)c1C(c1cccc(NS(=O)(=O)c3cccc(N4CCCS4(=O)=O)c3)c1)C1CC1)CCCCCC2 (stereo not drawn): 97.2%
- O=c1oc2c(c(O)c1C(c1cccc(NS(=O)(=O)c3cccc(C(F)(F)F)c3)c1)C1CC1)CCCCCC2 (stereo not drawn): 95.1%
- Cc1sc(C(c2c(O)c3c(oc2=O)CCCCCC3)C2CC2)cc1CO (stereo not drawn): 102%
- CCC(=O)C1CCCCCc2c1oc(=O)c(C(c1ccccc1)C1CC1)c2O (stereo not drawn): 35.8%
- O=c1oc2c(c(O)c1C(c1cccc(NS(=O)(=O)c3ccc(-c4ccccn4)s3)c1)C1CC1)CCCCCC2 (stereo not drawn): 86.2%
- O=C(CCn1ccc2ccccc21)Nc1cccc(C(c2c(O)c3c(oc2=O)CCCCCC3)C2CC2)c1 (stereo not drawn): 65.6%
- C[C@@H](NC(=O)OC(C)(C)C)C(=O)Nc1cccc(C(c2c(O)c3c(oc2=O)CCCCCC3)C2CC2)c1 (stereo partly drawn): 55.8%
- O=c1oc2c(c(O)c1C(c1cccc(NS(=O)(=O)Cc3ccccc3)c1)C1CC1)CCCCCC2 (stereo not drawn): 62.1%
- O=C(CCN1CCCCC1)Nc1cccc(C(c2c(O)c3c(oc2=O)CCCCCC3)C2CC2)c1 (stereo not drawn): 56.4%
- O=c1oc2c(c(O)c1C(c1cccc(NS(=O)(=O)c3cccs3)c1)C1CC1)CCCCCC2 (stereo not drawn): 91.8%
- O=C(NCc1ccc(C(c2c(O)c3c(oc2=O)CCCCCC3)C2CC2)o1)OCc1ccccc1 (stereo not drawn): 42.8%
- O=c1oc2c(c(O)c1C(c1cccc(NS(=O)(=O)CCc3ccccc3)c1)C1CC1)CCCCCC2 (stereo not drawn): 92.5%
- CCCC(c1cccc(NS(=O)(=O)c2cccnc2)c1)c1c(O)c2c(oc1=O)CCCCCC2 (stereo not drawn): 109%
- O=c1oc2c(c(O)c1C(c1cccc(NS(=O)(=O)c3ccc(NS(=O)(=O)c4ccccc4)cc3)c1)C1CC1)CCCCCC2 (stereo not drawn): 38.4%
- CC(C)c1ccc(S(=O)(=O)Nc2cccc(C(c3c(O)c4c(oc3=O)CCCCCC4)C3CC3)c2)cc1 (stereo not drawn): 77%
- N#Cc1ccccc1S(=O)(=O)Nc1cccc(C(c2c(O)c3c(oc2=O)CCCCCC3)C2CC2)c1 (stereo not drawn): 81.3%
- O=c1oc2c(c(O)c1C(c1cccc(NS(=O)(=O)CCCI)c1)C1CC1)CCCCCC2 (stereo not drawn) [Example 365C]: 93.6%
- O=c1oc2c(c(O)c1C(c1ccccc1)C1CC1)CCCCCC2CC1CCOC1 (stereo not drawn): 71.2%
- O=c1oc2c(c(O)c1C(c1cccc(NS(=O)(=O)c3cc(Cl)cc(Cl)c3O)c1)C1CC1)CCCCCC2 (stereo not drawn): 77%
- O=c1oc2c(c(O)c1C(c1cccc(NS(=O)(=O)c3cccc(N(CCO)CCO)c3)c1)C1CC1)CCCCCC2 (stereo not drawn) [Example 355 (Second Title Compound)]: 111%
- CC(C)(C)OC(=O)N1CCC[C@H]1C(=O)Nc1cccc(C(c2c(O)c3c(oc2=O)CCCCCC3)C2CC2)c1 (stereo partly drawn): 48.1%
- O=C(O)c1cccc(S(=O)(=O)Nc2cccc(C(c3c(O)c4c(oc3=O)CCCCCC4)C3CC3)c2)c1 (stereo not drawn): 104%
- O=c1oc2c(c(O)c1C(c1cccc(NS(=O)(=O)c3cccc(Cl)c3)c1)C1CC1)CCCCCC2 (stereo not drawn): 80%
- CS(=O)(=O)Nc1cccc(C(c2c(O)c3c(oc2=O)CCCCCC3)C2CC2)c1 (stereo not drawn): 46.7%

----------
- TARGET_ENTITY: HIV-1 protease (Human immunodeficiency virus type 1 group M subtype B, UniProt P04585)
- ASSAY: biochemical
- ASSAY_CONTEXT: read-out: HIV-1 Protease % Inhib, dose 3.300 uM
ATTRIBUTE_MEASURED: inhibition at 3.3 µM (%)

* CC(C)(C)c1ccc(S(=O)(=O)Nc2cccc(C(c3c(O)c4c(oc3=O)CCCCCC4)C3CC3)c2)cc1 (stereo not shown) [Example 265] | 86.1
* O=c1oc2c(c(O)c1C(c1cccc(NS(=O)(=O)c3cccc4ccccc34)c1)C1CC1)CCCCCC2 (stereo not shown) [Example 270] | 111
* CC(C)CC1CCCCCc2c1oc(=O)c(C(c1ccccc1)C1CC1)c2O (stereo not shown) [Example 131] | 112
* CC(C)C(c1cccc(NS(=O)(=O)c2ccc(Cl)cc2)c1)c1c(O)c2c(oc1=O)CCCCCC2 (stereo not shown) [Example 373] | 97.1
* CC(C)CC(c1cccc(NS(=O)(=O)c2cccc3cccnc23)c1)c1c(O)c2c(oc1=O)CCCCCC2 (stereo not shown) [Example 428] | 87.1
* CC1(C)C2CCC1(CS(=O)(=O)Nc1cccc(C(c3c(O)c4c(oc3=O)CCCCCC4)C3CC3)c1)C(=O)C2 (stereo not shown) [Example 333] | 82
* CC(C)CCC1CCCCCc2c1oc(=O)c(C(c1ccccc1)C1CC1)c2O (stereo not shown) [Example 132] | 98.1

----------
- TARGET_ENTITY: HIV-1 protease (Human immunodeficiency virus type 1 group M subtype B, UniProt P04585)
- ASSAY: biochemical
- ASSAY_CONTEXT: read-out: HIV-1 Protease % Inhib, dose 0.370 uM
ATTRIBUTE_MEASURED: inhibition at 0.37 µM (%)

* O=c1oc2c(c(O)c1C(c1cccc(NS(=O)(=O)c3ccc(F)cc3F)c1)C1CC1)CCCCCC2 (stereo not drawn) [Example 279] | 97.3
* CC(O)CC1CCCCCc2c1oc(=O)c(C(c1ccccc1)C1CC1)c2O (stereo not drawn) [Example 162] | 56
* CCCS(=O)(=O)Nc1cccc(C(c2c(O)c3c(oc2=O)CCCCCC3)C2CC2)c1 (stereo not drawn) [Example 324] | 87.5
* O=c1oc2c(c(O)c1C(c1cccc(NS(=O)(=O)c3cccc(Br)c3)c1)C1CC1)CCCCCC2 (stereo not drawn) [Example 291] | 108
* CCCC1CCCCCc2c1oc(=O)c([C@H](c1ccccc1)C1CC1)c2O (mixture of isomers) [Example 235] | 71.8
* O=c1oc2c(c(O)c1C(c1cccc(NS(=O)(=O)Nc3ccccc3)c1)C1CC1)CCCCCC2 (stereo not drawn) [Example 397] | 92.9
* O=c1oc2c(c(O)c1C(c1ccc(CO)s1)C1CC1)CCCCCC2 (stereo not drawn) [Example 384] | 47.4
* Nc1cc(NS(=O)(=O)c2ccccc2)cc(C(c2c(O)c3c(oc2=O)CCCCCC3)C2CC2)c1 (stereo not drawn) [Example 486] | 40
* CCC(c1cccs1)c1c(O)c2c(oc1=O)CCCCCC2 (stereo not drawn) [Example 380] | 21.5
* O=c1oc2c(c(O)c1C(c1cccc(NS(=O)(=O)c3cc(Cl)sc3Cl)c1)C1CC1)CCCCCC2 (stereo not drawn) [Example 304] | 60.2
* CCCCCCCCS(=O)(=O)Nc1cccc(C(c2c(O)c3c(oc2=O)CCCCCC3)C2CC2)c1 (stereo not drawn) [Example 343] | 75
* O=c1oc2c(c(O)c1C(c1cccc(NS(=O)(=O)c3ccc(CBr)cc3)c1)C1CC1)CCCCCC2 (stereo not drawn) [Example 403] | 77.5
* Cc1cccc(S(=O)(=O)Nc2cccc(C(c3c(O)c4c(oc3=O)CCCCCC4)C3CC3)c2)c1 (stereo not drawn) [Example 336] | 87.3
* O=c1oc2c(c(O)c1C(c1cccc(NS(=O)(=O)c3cccc(S(=O)(=O)N4CCOCC4)c3)c1)C1CC1)CCCCCC2 (stereo not drawn) [Example 411] | 79.4
* Cc1noc(C)c1S(=O)(=O)Nc1cccc(C(c2c(O)c3c(oc2=O)CCCCCC3)C2CC2)c1 (stereo not drawn) [Example 338] | 80.1
* O=c1oc2c(c(O)c1C(c1ccccc1)C1CC1)CCCCCC2C(O)C1CC1 (stereo not drawn) [Example 176] | 27.3
* O=c1oc2c(c(O)c1C(c1cccc(NS(=O)(=O)c3cccc(S(=O)(=O)NCc4ccccc4)c3)c1)C1CC1)CCCCCC2 (stereo not drawn) [Example 412] | 69.2
* O=c1oc2c(c(O)c1C(c1cccc(NS(=O)(=O)c3cccc4nsnc34)c1)C1CC1)CCCCCC2 (stereo not drawn) [Example 340] | 93.2
* O=c1oc2c(c(O)c1C(c1cccc(NS(=O)(=O)c3ccc(NO)cc3)c1)C1CC1)CCCCCC2 (stereo not drawn) [Example 348 (Second Title Compound)] | 81
* O=c1oc2c(c(O)c1C(c1ccccc1)C1CC1)CCCCCC2CC1CO1 (stereo not drawn) [Example 163] | 56
* COCCOCCOCCOc1ccc(S(=O)(=O)Nc2cccc(C(c3c(O)c4c(oc3=O)CCCCCC4)C3CC3)c2)cc1 (stereo not drawn) [Example 415] | 121
* CCCC(=O)Nc1cccc(C(c2c(O)c3c(oc2=O)CCCCCC3)C2CC2)c1 (stereo not drawn) [Example 209] | 43.2
* O=C(Nc1cccc(S(=O)(=O)Nc2cccc(C(c3c(O)c4c(oc3=O)CCCCCC4)C3CC3)c2)c1)c1ccccc1 (stereo not drawn) [Example 351] | 49.3
* Nc1ccc(S(=O)(=O)Nc2cccc(C(c3c(O)c4c(oc3=O)CCCCCC4)C3CC3)c2)cc1 (stereo not drawn) [Example 348 (First Title Compound)] | 80.7
* O=c1oc2c(c(O)c1C(c1cccc(NS(=O)(=O)c3ccc(Cl)c(Cl)c3Cl)c1)C1CC1)CCCCCC2 (stereo not drawn) [Example 410] | 79.7
* CC(CO)C1CCCCCc2c1oc(=O)c(C(c1ccccc1)C1CC1)c2O (stereo not drawn) [Example 161] | 67.3
* CCCC(c1cccc(NS(=O)(=O)c2ccc(F)cc2)c1)c1c(O)c2c(oc1=O)CCCCCC2 (stereo not drawn) [Example 430] | 98.2
* O=c1oc2c(c(O)c1C(c1ccccc1)C1CC1)CCCCCC2CC1CCCO1 (single isomer, unassigned) [Example 170] | 62.3
* CC(C)C(c1cccc(N)c1)c1c(O)c2c(oc1=O)CCCCCC2 (stereo not drawn) [Example 371] | 109
* CN(C)c1ccc(S(=O)(=O)Nc2cccc(C(c3c(O)c4c(oc3=O)CCCCCC4)C3CC3)c2)cc1 (stereo not drawn) [Example 352] | 78.5
